I'd be grateful if you could share measured MIC for these entries.
Tested on: MRSA isolates
ASSAY REMARKS: MIC/MBC, CLSI broth microdilution, MRSA isolates
Assay type: cell-based, Staphylococcus aureus
TEST SETTINGS: Staphylococcus aureus, MRSA, pH 5.5, MRSA 0634, pH 5.5
Numbers only, in µg/mL.

Past entries and their recorded results:
COMPOUND: [Li+].[Li+].[O-]c1c(Cl)cc(Cl)cc1-c1cc(Cl)cc(Cl)c1[O-] [C59Li]
READOUT NUMBER: 0.25
//
COMPOUND: [Na+].[Na+].[O-]c1c(Cl)cc(Cl)cc1-c1cc(Cl)cc(Cl)c1[O-] [C59Na]
READOUT NUMBER: 0.25
//
COMPOUND: Oc1c(Cl)cc(Cl)cc1-c1cc(Cl)cc(Cl)c1O [C59]
READOUT NUMBER: 0.5
//
COMPOUND: Oc1c(Br)cc(Br)cc1-c1cc(Br)cc(Br)c1O [C58, MC21-A]
READOUT NUMBER: 0.5

Kindly note the recorded MIC for CN[C@H](CC(C)C)C(=O)N[C@H]1C(=O)N[C@@H](CC(N)=O)C(=O)N[C@H]2C(=O)N[C@H]3C(=O)N[C@H](C(=O)N[C@H](C(=O)O)c4cc(O)cc(O)c4-c4cc3ccc4O)[C@H](O)c3ccc(c(Cl)c3)Oc3cc2cc(c3O[C@@H]2O[C@H](CO)[C@@H](O)[C@H](O)[C@H]2O[C@H]2C[C@](C)(N)[C@H](O)[C@H](C)O2)Oc2ccc(cc2Cl)[C@H]1O [Vancomycin, vancomycin, reference compound] , which is 2
